Reported values of Potency (Range 0-4) for individual entries
# System: bronchospasms
# test_name: bronchodilator activity overall, guinea pig Konzett assay
# Type: in vivo
# conditions: score, range 0-4

compound	Potency (Range 0-4)
CCCCC[C@H](O)/C=C/[C@H]1[C@H](SCCO)CC(=O)[C@@H]1C/C=C\CCCC(=O)OC	4
CCCCC[C@H](O)/C=C/[C@H]1C(SCCO)CC(=O)[C@@H]1CCCCCCC(=O)O (stereo partly drawn) [Example 228]	4
CCCCC[C@H](O)/C=C/[C@H]1[C@@H](SCCO)CC(=O)[C@@H]1C/C=C\CCCC(=O)OC	4
CCCCC(O)C/C=C/C1C(SCCO)CC(=O)C1CCCCCCC(=O)O (stereo not drawn) [Example 226]	3
CCCCC(C)(O)C/C=C/C1C(SCCO)CC(=O)C1C/C=C\CCCC(=O)O (stereo not drawn) [Example 225]	3
CCCCC[C@H](O)/C=C/[C@H]1C(SCCO)CC(=O)[C@@H]1C/C=C\CCCC(=O)OC (stereo partly drawn) [Example 223]	4

* * *

# Tested on: bronchospasms elicited by acetylcholine
# test_name: bronchodilator activity, (modified) guinea pig Konzett procedure, acetylcholine-induced bronchospasm
# Type: in vivo
# conditions: Cavia porcellus, iv, acetylcholine, first line of values for the compound, read-out: ED50 ACH.
value_kind: ED50 (mg/kg)

molecule	subject_of_test	measure_unit	measured
CCCCC[C@H](O)/C=C/[C@H]1C(SCCO)CC(=O)[C@@H]1CCCCCCC(=O)O (stereo partly drawn)	bronchospasms elicited by acetylcholine	mg/kg	0.011
CCCCC(O)C/C=C/C1C(SCCO)CC(=O)C1CCCCCCC(=O)O (stereo not drawn)	bronchospasms elicited by acetylcholine	mg/kg	0.053
CCCCC[C@H](O)/C=C/[C@H]1C(SCCO)CC(=O)[C@@H]1C/C=C\CCCC(=O)OC (stereo partly drawn)	bronchospasms elicited by acetylcholine	mg/kg	0.0275
CCCCC[C@H](O)/C=C/[C@H]1[C@H](SCCO)CC(=O)[C@@H]1C/C=C\CCCC(=O)OC	bronchospasms elicited by acetylcholine	mg/kg	0.0111
CCCCC(C)(O)C/C=C/C1C(SCCO)CC(=O)C1C/C=C\CCCC(=O)O (stereo not drawn)	bronchospasms elicited by acetylcholine	mg/kg	0.034
CCCCC[C@H](O)/C=C/[C@H]1[C@@H](SCCO)CC(=O)[C@@H]1C/C=C\CCCC(=O)OC	bronchospasms elicited by acetylcholine	mg/kg	0.0628
